assay: yeast display, Sf9 membrane polyspecificity reagent, FACS + sequencing; frameworks hold sequencing errors
readout_name: polyreactivity (PSR sort gate)

Check out these entries, answers already filled in.
[
  {
    "record_sequence": "QVQLVESGGGILQARGSRPLICAASGSNLSYNAMGWYRQAPGKEREFVATITGTGGSTRYADSVKGRFTFSRDNAKNTVYLQMNSLNPEDTAVYYCATAAWWYYRIYHEFGFLGQGTQVTVSS",
    "readout_name": "polyreactivity (PSR sort gate)",
    "data_value": "high polyreactivity"
  },
  {
    "record_sequence": "QVQLVESGGRIVQAGGSLRLSCAASGRTFLYNVMGWSRQAPGKERELVAAITSGGRTYYADSVKGRFTISRDNAKNTVYLQMNSLKPEDTAVYYCNADRQLYIYRYDYWGQGTQVTVSS",
    "readout_name": "polyreactivity (PSR sort gate)",
    "data_value": "low polyreactivity"
  },
  {
    "record_sequence": "QVQLVESGGGLVQAGGSLRLSCAASGIIFLTNAMGWSRPAPAKERELVAAITAIGGSTYYADSVKGRFTISRDNAKNTVYLQMNSLKPEDTAVYYCAADFSYVYYLYDYWGQGTQVTVSS",
    "readout_name": "polyreactivity (PSR sort gate)",
    "data_value": "low polyreactivity"
  },
  {
    "record_sequence": "QVQLVESGGGLVQAGGSLRLSCAASGFTFHGYTMGWYRQAPGKERELVAAITSGGGTNYADSVKGRFTISRVNAKNTVYLQKNSLKPEDTAVYYCAAVGTVPRKQRYHSYIDYDYWGQGTQVTVSS",
    "readout_name": "polyreactivity (PSR sort gate)",
    "data_value": "low polyreactivity"
  }
]

// below: polyreactivity (PSR sort gate) requested for another sequence
QDQIVESGGGLVQAGGSLRLSCSATGRTYVIYAMGWYRQAHGKERELVASIRRGGSTSYADSVKGRFTISRDNAKNTVYLQMKSLKPEDTAVYYCAAGAHRASSSGNGYWGQGSQVTVSS yielded polyreactivity (PSR sort gate) of high polyreactivity

###

assay: yeast display, Sf9 membrane polyspecificity reagent, FACS + sequencing; frameworks hold sequencing errors
readout_name: polyreactivity (PSR sort gate)

Sample records with polyreactivity (PSR sort gate):
[
  {
    "record_sequence": "QVQLVESGGGLVQAGGSLSLSCAASGFTFDYYAMGWYRQAPGKERELVAAISTSGGSTYYADSVKGRFTISRDNAMNTVYLQMNSLKPEDTAVYYCNVVFYEYSSVSYDYWGQGTQVTVSS",
    "readout_name": "polyreactivity (PSR sort gate)",
    "data_value": "high polyreactivity"
  },
  {
    "record_sequence": "QVQLVESGGGLVQAGGSLRLSCAASGRTFRWYAMGWYRQAPGKERELVADISSVGSTDYADSVKGRFTISRDNAKNTVYLQMNSLKPEDTAVYDCAADFSPRRYHNRSFGYWGHGTQVTVSS",
    "readout_name": "polyreactivity (PSR sort gate)",
    "data_value": "low polyreactivity"
  },
  {
    "record_sequence": "QVQLVESGGGLVQAGGSLRLSCAASGRTFVWNAMGWYRQAPGKERELVAAIDWSGGSTYYADSVKGRFTISRDNAKNTVYLQMNSLKPEDTAGYYCAKEYWYRALWYNYWGQGTQVTVSS",
    "readout_name": "polyreactivity (PSR sort gate)",
    "data_value": "high polyreactivity"
  },
  {
    "record_sequence": "QVQLVESGGGLVQAGGSLRLSCAASGRIFGQNAMGWYRQAPGKERELVAVITSRGTRTYYADSVKGRFTISRDNAKNTVYLQMNSLKPEDTAVYYCAADVYSDNYKTWPYDYWGQGTQVTVSS",
    "readout_name": "polyreactivity (PSR sort gate)",
    "data_value": "low polyreactivity"
  }
]

Now, please, on to the next sequence.
The sequence listed as QVQLVESGGGLVQAGGSLRLSCAASGRTYTRYALGWYRQAPGKERELVAAISGGGGSTYYADSVKGRFTISRDNAKNTVYLQMNSLKPEDTAVYYCNAAARGSSFDYWGQGTQVTVSS shows polyreactivity (PSR sort gate) equal to low polyreactivity

###

test: yeast display, Sf9 membrane polyspecificity reagent, FACS + sequencing; frameworks hold sequencing errors
readout_name: polyreactivity (PSR sort gate)

Take a look at these entries with their results.
[
  {
    "record_sequence": "QVQLVESGGGLVQAGGSLRLSCAASGSTFRCYAMGWYRQAPGKERELVAAISRSGGSTYYADSVKGRFTISRDNAKNTVYLQMNSLKPEDTAVYYCNARSSKRSSRGYDYWGQGTQVTVSS",
    "polyreactivity (PSR sort gate)": "high polyreactivity"
  },
  {
    "record_sequence": "QVQLVESGGGLVQAGGSLRLSCAASGFIIPGYAMGWYRQAPGKERELVAAISSGTSTYYADSVKGRFTISRDNAKNTVYLQMNSLKPEATAVYYCAADTWYRFGYWGQGTQVTVSS",
    "polyreactivity (PSR sort gate)": "low polyreactivity"
  },
  {
    "record_sequence": "QVQLVESGGGLVQAGGSLRLSCAASGRIFRYNAMGLYRQAPGKERELVAVITSRGGRTYYADSVKGRFTISRDNAKNTVYLQMNSLKPEDTAVYYCTAKRYRYYRWYFTGKYDYWGQGTQVTVSS",
    "polyreactivity (PSR sort gate)": "high polyreactivity"
  },
  {
    "record_sequence": "QVLLQESGGGLVQAGGSLRLSCAASGNIFSAGGMGWYRQAPVNERELVAGIGTGTSTNYADSVKGRFTISRDNAKNTVYLQMNILKPEDTAVYYCAAAYYSGLSHWYWGQGTQVTVSS",
    "polyreactivity (PSR sort gate)": "low polyreactivity"
  }
]

We now examine a further sequence.
response.value for QVQLVESGGGLVQAGGSLRLSCAASGRIFQRYTMGWYRQAPGKEWEFVAAITYSGGSTHYADSVKGRFTISRDNAKNTVYLQMNSLKPEDTAVYYCATDYIRYRWYVFYGWLWRYDYWGQGTQVTVSS (field: polyreactivity (PSR sort gate)) = low polyreactivity

###

assay: yeast display, Sf9 membrane polyspecificity reagent, FACS + sequencing; frameworks hold sequencing errors

[
  {
    "record_sequence": "QVQLVESGGRLVQAGGSLRLSCAASGSIFYSYAMGWYRQAPGKERELVAAISRSGVSTYYADSVKGRFTISRDNAKNTVYFQMNSLKPEDTAVYYCASPYFVSYQGYDYWGQGTQVTVSS",
    "polyreactivity (PSR sort gate)": "high polyreactivity"
  },
  {
    "record_sequence": "QVQIVESGGGLVQAGGSLRLSCAASGRTFRANAMGWYRQAPGKERELVAAIRTGTRTYYADSVKGRFTISRDNANNTVYFQMNSLKTVDSAVYYCAARYYHPYSHGYWQERDYWGQGTKVTVSS",
    "polyreactivity (PSR sort gate)": "high polyreactivity"
  }
]

###

experiment: yeast display, Sf9 membrane polyspecificity reagent, FACS + sequencing; frameworks hold sequencing errors

[
  {
    "record_sequence": "QVQLVESGGGLVQAGGSHRLRCADSGFTFYSNAMGCYRQAPGKERELVASITWSGGNTYYADSVKGRFTISRDKAKTTVYLQMNSLKPEDTAVYYCAAGYSRDVQGYARAYRFYYWGQGTQVTVSS",
    "polyreactivity (PSR sort gate)": "high polyreactivity"
  },
  {
    "record_sequence": "QVQLVESGGGFVQAGGSLRLSCAASGFTFVGYAMGWYRQAPGKERELVAAITRRGGSTYYADSVKGRFTISRDNAKNTVYLQMNSLKPEDTAVYYCNKASYRISVPRYDYWGQGTQVTVSS",
    "polyreactivity (PSR sort gate)": "high polyreactivity"
  }
]

###

test: yeast display, Sf9 membrane polyspecificity reagent, FACS + sequencing; frameworks hold sequencing errors
readout_name: polyreactivity (PSR sort gate)

[
  {
    "record_sequence": "QVQLVESGGGLVQAGGSLRLSCADSGIIFAYYDMGWYRQAPGKERELVASISSTGGSTYYADSVKGRFTISSDNAKNTVYLQMNSLKPEDTAVYYCAVDGLPPKDALHLYYYWGQGTQVTVSS",
    "polyreactivity (PSR sort gate)": "low polyreactivity"
  },
  {
    "record_sequence": "QVQLVESGGGLVQAGGSLRLSCAASGSTLVYYDMGWYRKAPGKERELVATITGTDSTYYADSVKGRFTISRDNAKNTVYLQMNSLKPEDTADCAADRAASRPDYDYWGQGTQVTVSS",
    "polyreactivity (PSR sort gate)": "low polyreactivity"
  },
  {
    "record_sequence": "QVQLVESGGGLVQAGGSLRLSCAASGSIFVRYAMGWYRQAPGKERELVAAISSGGRTYYADSVKGRFTISRDNAKNPVYLQMNSLKPEDTAVYYCNAVKRVPSLGPYDYWGQGTQVTVSS",
    "polyreactivity (PSR sort gate)": "high polyreactivity"
  },
  {
    "record_sequence": "QVQLVESGGGLDQAGGSLRLSCAASGSIFSYYAMGWYRQAPGKERELVAAITIRGGRTYYADSVKGRFTISRDNAKNTVYLQMNSLKPEDTAVYYCAADWLNSDPYNYWGQGTQVTVSS",
    "polyreactivity (PSR sort gate)": "low polyreactivity"
  }
]

polyreactivity (PSR sort gate) reading for QVQLVESGGGLVQAGGSLRLSCAASGSILFYAMVWYRQAPGKERELVAAITWRGGSTYYADSVKGRFTISRDNAKNSVYLQMNSLKPEDTAVYYCARDETGRIEGDYWGQGTQVTVSS : high polyreactivity

The sequence listed as QVQLVESGGGLVQAGGSLRLSCAASGRIFGVYAMGWYRQAPGKERELVAAISSTGDRTYYADSVKGRFTISRDNAKNTVYLQMNSLKPEDTAVYYCAARPAYRSSYYWGQGTQVTVSS shows polyreactivity (PSR sort gate) equal to high polyreactivity

Documented polyreactivity (PSR sort gate) of QVQLVESGGGLVQAGGSLRLSCAASGFTFWEYAMGWYRQAPGKERELVAAIRDRGVNTYYADSVKGRFTISRDNAKNTVYLQMNSLKPVDTAVYYCAKSTRRGGVALGEYDYWGQGSQVTVSS : low polyreactivity

Note to self: polyreactivity (PSR sort gate) recorded for QVQLVESGGGLDQAGGSRRLSCAASGSTFSSYAMGWYSQAPGQARELVAVITASGGSTYYADSVKGRFTISRDNPKNTVYLQMNSLKPDDTAVYYCAADPRSGDQYGKGDYWGQGTQVTGSS was low polyreactivity
